# System: RPMI-8226
# Experiment Notes: NCI tumour cell line growth inhibition, 48 h
Calls of active or inactive are those of the source. No stated cut-off is given here; in the data, active = GI50 up to about 1.1 µM and inactive = higher.
// allowed return values: active, inactive

| Molecule | Study System | Group |
| --- | --- | --- |
| C=CCOn1c(C=C)nc2ccc(C)cc21 | RPMI-8226 | inactive |

Incoming: State the result this test recorded for Cc1cc(N(CCC#N)CCC#N)ccc1/N=N/c1cc(Cl)ccc1Cl .
Outgoing: inactive

Incoming: State the result this test recorded for CC(=O)C1C(=O)N(C(C)C)C[C@@H]2CCC(=O)C[C@H]12 (stereo partly drawn) .
Outgoing: inactive

Incoming: State the result this test recorded for CC(=O)C(=[N+]=[N-])C(=O)OCCOC(=O)C(=[N+]=[N-])C(C)=O .
Outgoing: active

Incoming: State the result this test recorded for COC(=O)C1C(=O)O[C@@H](c2ccc(OC)cc2OC)C1C(=O)OC (stereo partly drawn) .
Outgoing: inactive

Incoming: State the result this test recorded for CS/C=C\C(=O)O[C@H]1C[C@@H]2[C@@H](O)c3occ(C)c3C[C@]2(C)[C@@H](C)C1 .
Outgoing: inactive

Incoming: State the result this test recorded for Cc1ccc(Cl)c2c(=O)c3ccc([N+](=O)[O-])cc3sc12 .
Outgoing: inactive

Incoming: State the result this test recorded for O=C(OCC12CC3CC(CC(C3)C1)C2)c1ccc(NCc2cc(O)ccc2O)cc1 .
Outgoing: active

Incoming: State the result this test recorded for CCCc1[nH]c(SCCCCCCCCSc2nc(-c3ccc(F)cc3)c(CCC)[nH]2)nc1-c1ccc(F)cc1 .
Outgoing: inactive

Incoming: State the result this test recorded for Cc1cccc(C(=O)O)c1CC1NCCC2c3ccccc3NC12 (stereo not drawn) .
Outgoing: inactive

Incoming: State the result this test recorded for COC(=O)C1=C(C)N(NC(=O)Nc2ccccc2)C2(N)N(NC(=O)Nc3ccccc3)C(C)=C(C(=O)OC)C12C(=O)OC (stereo not drawn) .
Outgoing: inactive
